experimental_system: glucose dehydrogenase (GDH)
assay_procedure: GDH activity in homogeneous solution, absorbance change at 340 nm
Assay type: biochemical, Pseudomonas sp.
assay_context: Hg(II) 0-200 μM, activity 100% without Hg(II), read-out: IC50 for inhibition of GDH in homogeneous solution
pIC50: −log10 of the molar value.
metric: pIC50

compound	experimental_system	assay_value
CC(=O)[O-].CC(=O)[O-].[Hg+2] [Hg(II), mercury(II) acetate]	glucose dehydrogenase (GDH)	4.74

---

experimental_system: glucose dehydrogenase (GDH)
assay_procedure: Inhibition of GDH-driven NADH production read out on the paper-based AuNP device
Format: biochemical, Pseudomonas sp.
assay_context: 0.1 U GDH, 0-200 μM Hg(II), 400 μM Au3+-CTAB, 4-min reaction, ImageJ intensity
pIC50: −log10 of the molar value.
metric: pIC50

compound	metric	assay_value
CC(=O)[O-].CC(=O)[O-].[Hg+2] [Hg(II), mercury(II) acetate]	pIC50	4.70

Hello, the source for this data is patent US10000790B2, in case you need it.
